Data origin, for the record: patent US20110275559A1

# SYSTEM_UNDER_TEST: Y4 receptor (UniProt P50391 1-375, limits assumed)
# Sequence (P50391 whole entry): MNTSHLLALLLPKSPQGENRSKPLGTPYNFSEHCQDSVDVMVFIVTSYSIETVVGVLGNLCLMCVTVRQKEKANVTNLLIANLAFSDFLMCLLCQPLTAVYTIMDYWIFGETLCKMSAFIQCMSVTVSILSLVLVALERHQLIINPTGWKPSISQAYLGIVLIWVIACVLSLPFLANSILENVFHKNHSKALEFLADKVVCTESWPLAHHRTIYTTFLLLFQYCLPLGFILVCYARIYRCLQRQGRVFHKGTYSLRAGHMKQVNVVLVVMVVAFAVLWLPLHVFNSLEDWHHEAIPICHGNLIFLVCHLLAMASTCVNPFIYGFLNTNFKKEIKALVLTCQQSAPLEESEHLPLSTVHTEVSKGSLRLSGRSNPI
# ASSAY_COMMENT: cell-based or functional assay
*1 amine or outer side, *2 acyl side, *3 side chain or, on linkers, in order; H or OH if unused. Where no end group is shown, it is not given here. Side-chain parts run from the residue outwards. The star is where a group is joined. C20 diacid = O=C(O)CCCCCCCCCCCCCCCCCCC(=O)*; C18 diacid = O=C(O)CCCCCCCCCCCCCCCCC(=O)*; γGlu = O=C(O)[C@H](CCC(=O)[*:2])N[*:1]; Trx = NC[C@H]1CC[C@H](C(=O)O)CC1; AEEA = NCCOCCOCC(=O)O
Each entry below lists one item and its recorded Y4 cAMP EC50 value.

Worked examples follow.
[[record]]
binder = "PLEPVYPGDNATPEQLAQYAADLK([AEEA-AEEA-γGlu-Trx-C20 diacid])RYINLLTRPRY (ends and bridges not checked)"
reported_value = "> 1000 nM"

[[record]]
binder = "PLEPVYPGDNATPEQLAQYAADLRRYIK([AEEA-AEEA-γGlu-Trx-C20 diacid])LLTRPRY (ends and bridges not checked)"
reported_value = "> 890 nM"


Please find the next binder below.
Summary for this binder, PLEPVYPGDNATPEQLAQYAADLRRYINLLTRPK([AEEA-AEEA-γGlu-C18 diacid])Y (ends and bridges not checked) : Y4 cAMP EC50 is > 1000 nM
